Sourced from the supplement of paper PMC11451515

- System: NOMO1
- Assay Notes: AUC of viability dose-response curve (% viability x log10 dose units); higher = less sensitive
- Test Conditions: HPLM + 10% dialyzed FBS; 48 h
Reported AUC of viability dose-response curve values for the following molecules.
Number, no unit, nothing else.

Use the examples below as a reference point.
>>> numeric_value("O=C(Nc1ccccc1Br)N[C@@H]1CCN(c2ccc(C(F)(F)F)cn2)C1")
448
>>> numeric_value("CC(C)C(C)/C=C/C(C)C1CCC2C3=CC=C4CC(O)CCC4(C)C3CCC21C (stereo not given)")
474
>>> numeric_value("COc1ccc(Cc2ccc(NC(N)=O)cc2)cc1-c1cccc(Cl)c1")
472
>>> numeric_value("C[C@H](NC(=O)/C(C#N)=C/c1cccc(Br)n1)c1ccccc1")
348
>>> numeric_value("CN(Cc1cnc2nc(N)nc(N)c2n1)c1ccc(C(=O)N[C@@H](CCC(=O)O)C(=O)O)cc1")
304
>>> numeric_value("C/C=C/C[C@@H](C)C(=O)[C@H]1C(=O)N[C@@H](C(C)C)C(=O)N(C)CC(=O)N(C)[C@@H](CC(C)C)C(=O)N[C@@H](C(C)C)C(=O)N(C)[C@@H](CC(C)C)C(=O)N[C@@H](C)C(=O)N[C@H](C)C(=O)N(C)[C@@H](CC(C)C)C(=O)N(C)[C@@H](CC(C)C)C(=O)N(C)[C@@H](C(C)C)C(=O)N1C")
441
>>> numeric_value("Cc1c(CCOc2ccc(C(=O)O)cc2)c2cc(Cl)ccc2n1C(c1ccccc1)c1ccccc1")
457
>>> numeric_value("CCc1cc(Nc2nccc(-c3c(-c4ccc(OC)c(C(=O)Nc5c(F)cccc5F)c4)nc4ccccn34)n2)c(OC)cc1N1CCC(N2CCN([S+](C)(=O)[O-])CC2)CC1")
459
>>> numeric_value("COc1cnc(N[S+](=O)([O-])c2ccc(N)cc2)nc1")
445
>>> numeric_value("C[C@](O)(COc1ccc(C#N)cc1)C(=O)Nc1ccc(C#N)c(C(F)(F)F)c1")
422

Q. Endpoint output: AUC of viability dose-response curve of CCC1(C)CC(=O)NC1=O (stereo not given) . Value?
A. 437

Q. Endpoint output: AUC of viability dose-response curve of CNC(=O)c1ccc(-c2cnc3ncc(Cc4ccc5ncccc5c4)n3n2)cc1F . Value?
A. 460

Q. Endpoint output: AUC of viability dose-response curve of NC1(Cc2ccc(Cl)cc2)CCN(c2ncnc3[nH]ccc23)CC1 . Value?
A. 418

Q. Endpoint output: AUC of viability dose-response curve of COc1cc2c(cc1OC)C1CC(=O)C(CC(C)C)CN1CC2 (stereo not given) . Value?
A. 448

Q. Endpoint output: AUC of viability dose-response curve of OC[C@H]1O[C@@H](O[C@@H]2[C@@H](CO)O[C@](O)(CO)[C@H]2O)[C@H](O)[C@@H](O)[C@H]1O . Value?
A. 448

---

Reported cell viability values for the following molecules.
- System: SEM cells
- Assay Notes: cell viability relative to DMSO control; higher = less cytotoxic
- Test Conditions: RPMI 5 mM glucose + 10% FBS; 48 h; 0.569 µM
Numbers only here, please. The scale is %.

>>> numeric_value("CN1[C@@H]2CC(OC(=O)[C@@H](CO)c3ccccc3)C[C@H]1[C@H]1O[C@H]12 (stereo not given in full)")
96.2
>>> numeric_value("CNC1CCC(N(Cc2cccc(-c3ccncc3)c2)C(=O)c2sc3ccccc3c2Cl)CC1 (stereo not given)")
18.2
>>> numeric_value("O=C(NOCC(O)CO)c1cc(Br)c(F)c(F)c1Nc1ccc(I)cc1F (stereo not given)")
70.8

Q. Endpoint output: cell viability of COC[C@H]1OC(=O)C2=COC3=C2[C@@]1(C)\C4=C(C5CCC(=O)[C@@]5(C)C[C@H]4OC(C)=O)/C3=O (stereo not given in full) . Value?
A. 107

Q. Endpoint output: cell viability of CCC[C@H](NC(=O)/C(C#N)=C/c1cccc(Br)n1)c1ccccc1 . Value?
A. 102

---

- Test system: P12-Ichikawa
- Assay Notes: cell viability relative to DMSO control; higher = less cytotoxic
- Test Conditions: RPMI 5 mM glucose + 10% FBS; 48 h; 0.00234 µM
Reported cell viability values for the following compounds.

>>> result("Cc1ccc(NC(=O)c2ccc(CN3CCN(C)CC3)cc2)cc1Nc1nc(-c2cccnc2)cs1")
"101%"
>>> result("CCC[C@H](NC(=O)/C(C#N)=C/c1cccc(Br)n1)c1ccccc1")
"122%"
>>> result("CO[C@H]1/C=C/O[C@@]2(C)Oc3c(C)c(O)c4c(O)c(c5c(nc6cc(C)ccn65)c4c3C2=O)NC(=O)/C(C)=C\\C=C\\[C@H](C)[C@H](O)[C@@H](C)[C@@H](O)[C@@H](C)[C@H](OC(C)=O)[C@@H]1C")
"103%"
>>> result("C=C(C)[C@@H]1CC[C@]2(C(=O)O)CC[C@]3(C)[C@H](CC[C@@H]4[C@@]5(C)CC[C@H](O)C(C)(C)[C@@H]5CC[C@]43C)[C@@H]12")
"116%"
>>> result("CCc1cncnc1N1CCN(Cc2nc3cc(C(F)(F)F)ccc3[nH]2)CC1")
"97.6%"

Q. Endpoint output: cell viability of NC[C@H]1CC[C@H](C(=O)O)CC1 . Value?
A. 141%

Q. Endpoint output: cell viability of CCCc1nc(C(C)(C)O)c(C(=O)O)n1Cc1ccc(-c2ccccc2-c2nn[nH]n2)cc1 . Value?
A. 114%

---

Reported cell viability values for the following compounds.
- System: NOMO1
- Assay Notes: cell viability relative to DMSO control; higher = less cytotoxic
- Test Conditions: HPLM + 10% dialyzed FBS; 48 h; 15.4 µM
Numbers only here, please. The scale is %.

Use the examples below as a reference point.
>>> numeric_value("CO[C@H]1/C=C/O[C@@]2(C)Oc3c(C)c(O)c4c(O)c(c5c(nc6cc(C)ccn65)c4c3C2=O)NC(=O)/C(C)=C\\C=C\\[C@H](C)[C@H](O)[C@@H](C)[C@@H](O)[C@@H](C)[C@H](OC(C)=O)[C@@H]1C")
91.7
>>> numeric_value("COc1c(C)cnc(Cn2cnc3c(Cl)nc(N)nc32)c1C")
18.2
>>> numeric_value("CC(C)[C@@H](N(CCCN)C(=O)C1=CC=C(C)C=C1)C/2=N/C3=CC(=CC=C3C(=O)N2CC4=CC=CC=C4)Cl")
15.8
>>> numeric_value("COC1=CC2=NC=CC(=C2C=C1)OC3=CN=C(NC(=O)C/4=C(C)/N(CC(C)(C)O)N(C4=O)C5=CC=CC=C5)C=C3")
88
>>> numeric_value("C=C(C)[C@@H]1CC[C@]2(C(=O)O)CC[C@]3(C)[C@H](CC[C@@H]4[C@@]5(C)CC[C@H](O)C(C)(C)[C@@H]5CC[C@]43C)[C@@H]12")
94.6
>>> numeric_value("C#Cc1cccc(Nc2ncnc3cc(OCCOC)c(OCCOC)cc23)c1")
75.3

Q. Endpoint output: cell viability of Cc1ccccc1C(C(=O)NC1CCCCC1)N(C(=O)Cn1ccnc1C)c1cccc(F)c1 (configuration not stated) . Value?
A. 99.2

---

Reported cell viability values for the following compounds.
- System: P12-Ichikawa
- Assay Notes: cell viability relative to DMSO control; higher = less cytotoxic
- Test Conditions: HPLM + 10% dialyzed FBS; 48 h; 0.0632 µM
Numbers only here, please. The scale is %.

Use the examples below as a reference point.
>>> numeric_value("COC[C@H]1OC(=O)C2=COC3=C2[C@@]1(C)\\C4=C(C5CCC(=O)[C@@]5(C)C[C@H]4OC(C)=O)/C3=O (some centres undefined)")
108
>>> numeric_value("C[C@]\\12CC[C@H](O)CC1=C/CC3C2CC[C@@]\\4(C)C3C\\C=C4[N]5C=NC6=C5C=CC=C6 (some centres undefined)")
103
>>> numeric_value("COc1cc2c(cc1-c1c(C)noc1C)ncc1[nH]c(=O)n([C@H](C)c3ccccn3)c12")
115

Please find the next compound below.
Q. Endpoint output: cell viability of COC1=C(N2CCNC(C)C2)C(=CC3=C1N(\C=C(C(O)=O)/C3=O)C4CC4)F (centres undefined) . Value?
A. 91.1

---

- Test system: SEM cells
- Assay Notes: cell viability relative to DMSO control; higher = less cytotoxic
- Test Conditions: RPMI 5 mM glucose + 10% dialyzed FBS; 48 h; 0.0632 µM
Assay Readout: cell viability (%)
Numbers only here, please. The scale is %.

Q. Endpoint output: cell viability of CCCc1nc(C(C)(C)O)c(C(=O)O)n1Cc1ccc(-c2ccccc2-c2nn[nH]n2)cc1 . Value?
A. 104

Q. Endpoint output: cell viability of CC(C)c1cnn2c(NCc3ccccc3)cc(N[C@@H](CO)[C@H](O)CO)nc12 . Value?
A. 120

Q. Endpoint output: cell viability of CN1[C@@H]2CC(OC(=O)[C@@H](CO)c3ccccc3)C[C@H]1[C@H]1O[C@H]12 (stereo partly drawn) . Value?
A. 96.3

Q. Endpoint output: cell viability of COC1=CC=CC2=C1C(=NC(=N2)C3=CC=CS3)NN4C(=O)\C=C(C)/C4=O . Value?
A. 76.3

Q. Endpoint output: cell viability of CCc1cc(Nc2nccc(-c3c(-c4ccc(OC)c(C(=O)Nc5c(F)cccc5F)c4)nc4ccccn34)n2)c(OC)cc1N1CCC(N2CCN([S+](C)(=O)[O-])CC2)CC1 . Value?
A. 87.8

Q. Endpoint output: cell viability of CC1=CC=CC=C1N2\C(=N/C3=C(C(=CC=C3)C)C2=O)C[N]4C=NC5=C4N=CN=C5N . Value?
A. 90

Q. Endpoint output: cell viability of CC\1=C/C=C\C=[N]1[Pt](N)(Cl)Cl . Value?
A. 98.1

Q. Endpoint output: cell viability of CC(C)n1c(/C=C/[C@H](O)C[C@H](O)CC(=O)O)c(-c2ccc(F)cc2)c2ccccc21 . Value?
A. 126
